Reference source: patent EP0051819A2

Assay: Cytotoxicity in HeLa cells, observed microscopically in the antiviral test
Type: cell-based
Conditions: human, hela cells; minimal concentration at which toxic symptoms were observed (cytotoxische Dosis); 2 days at 33°C; read-out: Cytotoxizität
Exercise: for every item that follows, state its recorded MCC at 48 h.

Prompt: Recorded MCC at 48 h for COc1cc(O)c(C(=O)CCC2CCC(C)O2)c(OC)c1 (stereo not drawn) , please?
Response: > 8 µg/mL

Prompt: Do the same for COc1cc(O)c(C(=O)NCc2ccc(C)cc2)c(OC)c1 please
Response: 8 µg/mL

Prompt: Do the same for COc1cc(O)c(C(=O)NCc2ccc(OC)c(O)c2)c(OC)c1 please
Response: 2.7 µg/mL

Prompt: Do the same for C=CCOc1ccc(CNC(=O)c2c(O)cc(OC)cc2OC)cc1 please
Response: 8 µg/mL

Prompt: Do the same for CCCOc1cc(O)c(C(=O)CCc2ccc(OC)cc2)c(OC)c1 please
Response: 2.7 µg/mL

Prompt: Do the same for COc1cc(O)c(C(=O)CCc2ccc(Cl)cc2)c(OC)c1 please
Response: 10 µg/mL

Prompt: Do the same for COc1cc(O)c(C(=O)NCc2ccc(N(C)C)cc2)c(OC)c1 please
Response: > 8 µg/mL

Prompt: Do the same for COc1ccc(C(=O)CC(=O)c2c(O)cc(OC)cc2OC)cc1 please
Response: 8 µg/mL

Prompt: Do the same for CCOc1cc(O)c(C(=O)CCc2ccc(OC)cc2)c(OC)c1 please
Response: > 8 µg/mL

Prompt: Do the same for COc1cc(O)c(C(=O)NCc2ccc(Cl)cc2)c(OC)c1 please
Response: > 2.4 µg/mL

Prompt: Do the same for C=CCOc1ccc(CNC(=O)c2c(OC)cc(OC)cc2OC(=O)CCCCCCCCCCCCCCCCC)cc1 please
Response: > 8 µg/mL

Prompt: Do the same for CCOC(=O)Oc1cc(OC)cc(OC)c1C(=O)NCc1ccc(OC)cc1 please
Response: > 8 µg/mL
